Test system: RPMI-8226 leukemia
Assay: NCI-60 one-dose screen, 48 h
Conditions: 10 µM unless noted
Compounds without any hit were thinned out: in the full panel of roughly 83,000, 20% have a hit. Activity calls are given as the source filed them. How the source made its calls: active means growth percent below 10; inactive means the rest.
Outcomes: Yes = active, No = inactive

Molecule | Class assignment
Cc1occc1C(=O)NN1C(=O)/C(=C/C=C/c2ccc([N+](=O)[O-])o2)SC1=S | Yes
C=C1CC[C@@H]2[C@]3(C)COC(c4ccco4)O[C@@H]3CC[C@@]2(C)[C@@H]1C/C=C1/C(=O)OCC1OC(C)=O (stereo partly drawn) | Yes
COc1ccc2[nH]c(=O)c(CSc3nccc(-c4ccc(OC)c(OC)c4)n3)cc2c1 | No
O=c1[nH]n(C(=S)N/N=C/c2ccccc2Cl)c(=O)c2ccccc12 | Yes
Cn1cc(-c2nc(N)nnc2-c2c[nH]c3ccc(F)cc23)c2cc(Br)cnc21 | Yes
COc1cc2c(c(OC)c1OC)C(=O)CC(c1cccc(NC(=O)c3cc(NC(=O)[C@H](C)N)ccc3Cl)c1)O2 (stereo partly drawn) | Yes
COC(=O)C[C@](O)(CCCC(C)(C)O)C(=O)O[C@H]1C(OC)=C[C@@]23CCCN2CCc2cc4c(cc2[C@@H]13)OCO4 | Yes
CCN1C(=O)/C(=N\N=C(/C)c2ccc3c(c2)Nc2ccccc2S3)c2cc(Cl)ccc21 | No
CC(=O)/C=C/c1cccc2c1C(=O)NC(C)(c1cc3cc(Br)ccc3oc1=O)N2 (stereo not drawn) | Yes
N#Cc1c(-c2ccc(Br)cc2)nc2n[nH]c(-c3ccc(Br)cc3)c2c1-c1ccc(C(F)(F)F)cc1 | Yes
COc1ccc(CCC2c3c(cc4c(c3OC)OCO4)CCN2C)cc1 (stereo not drawn) | Yes
COc1ccc2[nH]cc(-c3nnc(N)nc3-c3cn(C)c4ncc(Br)cc34)c2c1 | No
C=Cn1cc(C(=O)O)c(=O)c2cc(F)c(N3CCN(c4nccc(-c5nccs5)n4)CC3)cc21 | Yes
COc1ccc(N2N=C(c3ccc4c(c3)OCO4)CC2c2cccc(NC(=O)CCCNS(=O)(=O)c3ccc(F)cc3)c2)cc1 (stereo not drawn) | No
COc1cc(CNC(=O)/C=C/c2ccc3c(c2)OCO3)ccc1OCc1cn(-c2ccc([N+](=O)[O-])cc2)nn1 | No
COc1ccc(/C=C/c2n(Cc3ccc4ccccc4c3)c3ccccc3[n+]2Cc2ccc3ccccc3c2)cc1 | Yes
CSc1ccccc1NC(=O)c1ccc2nnn(/C(C#N)=C/c3ccccn3)c2c1 | Yes
Cn1cc(-c2cc3nc(-c4cn(C)c5ncccc45)cc(N)n3n2)c2ccccc21 | Yes

----------
System: SNB-75 CNS
Assay: NCI-60 one-dose screen, 48 h
Conditions: 10 µM unless noted
This is part of a sample that, as a whole, favours compounds with a hit. Of some 83,000 tested, about 20% had one in any assay. Activity calls are given as the source filed them. How the source made its calls: active means growth percent below 10; inactive means the rest.
Outcomes: active, inactive

Molecule | Class assignment
COc1ccc(C(=O)/C=C/c2ccccc2Br)cc1S(N)(=O)=O | inactive
COc1ccc([C@H](C)Nc2nc(Cl)nc3ccccc23)cc1 | inactive
CC(=O)N1CCN(Cc2ccc3c(NNC(=O)c4cnccn4)nc4cc(F)ccc4n23)CC1 | inactive
CC1=C(C(=O)OC(C)C)C(c2cccc(O)c2)NC(=S)N1 (stereo not drawn) | inactive
COC(=O)C[C@](O)(CCCC(C)(C)O)C(=O)O[C@H]1C(OC)=C[C@@]23CCCN2CCc2cc4c(cc2[C@@H]13)OCO4 | active
CC(C)CSc1nc(NCCc2c[nH]c3ccccc23)c(C#N)c(-c2ccccc2)n1 | inactive
COc1ccccc1/C=C/C(=O)c1ccc(OC)c(S(N)(=O)=O)c1 | active
S=c1c2ccccc2nc2n1CCc1c-2[nH]c2ccccc12 | active
O=C(Cn1nc(-c2ccccc2)ccc1=O)N/N=C/c1ccc(N2CCOCC2)cc1 | inactive
O=c1onc(-c2cc3ccccc3nc2Cl)n1-c1cccc2ccccc12 | active
C=C1CC[C@@H]2[C@]3(C)COC(c4cn(-c5ccccc5)nc4-c4ccccc4)O[C@@H]3CC[C@@]2(C)[C@@H]1C/C=C1/C(=O)OC[C@H]1O (stereo partly drawn) | active
O=c1[nH]c2ccccc2cc1CSc1cccc(Nc2nccc(-c3ccc4ccccc4c3)n2)c1 | inactive
Nc1nc(-c2ccccc2)c(N=Nc2ccc([N+](=O)[O-])cc2Cl)s1 | inactive
COc1ccc(C2=NN(C(C)=O)C(c3ccc(OCc4ccc(Cl)cc4)c(OC)c3)C2)cc1OC (stereo not drawn) | inactive
COc1cc(/C=C/C(=O)c2ccccc2)ccc1Oc1nc(Nc2ccc(F)cc2)nc(N(C)C)n1 | inactive
CSc1ccccc1NC(=O)c1ccc2nnn(/C(C#N)=C/c3ccccn3)c2c1 | inactive
CCC(C)(C)c1ccc(OCCCCCCN2CCN(c3ccncc3)CC2)cc1 | inactive
CC(=O)OC[C@@]1(C)C2CC[C@]3(C)C(CC=C4C5CC(C)(C)CC[C@]5(C(=O)Nc5ccc(C)cc5)CC[C@]43C)[C@@]2(C)C[C@@H](OC(C)=O)[C@@H]1OC(C)=O (stereo partly drawn) | inactive
CC(C)Sc1nc(NCCc2c[nH]c3ccccc23)c(C#N)c(-c2ccc(F)cc2)n1 | inactive
COc1ccc(NC(=O)Cn2c(O)c(N=Nc3ccc(S(N)(=O)=O)cc3)c3ccccc32)cc1 | inactive
COc1cc(C2CC(c3cc(OC)c(OC)c(OC)c3)=NN2C(C)=O)ccc1OCc1ccccc1 (stereo not drawn) | inactive
O=C1NC(=O)c2c1c1c3cc(Br)ccc3[nH]c1c1oc3ccc(F)cc3c21 | active
CCOC(=O)C(N=Nc1ccc(S(=O)(=O)N=C(N)N)cc1)C(C)=O (stereo not drawn) | inactive
CN(C)c1nc(NCCNS(=O)(=O)c2ccc(C(=O)/C=C/c3ccc(C(F)(F)F)cc3)cc2)nc(Nc2ccc(F)cc2)n1 | inactive
Cn1nc(C(F)(F)F)cc1-c1cc(Cl)c(COc2ccc(Cl)cc2)c(-c2ccc(Cl)c(C(F)(F)F)c2)c1O | active
O=C1c2c(c3c4cc(F)ccc4oc3c3[nH]c4ccc(Br)cc4c23)C(=O)N1O | active
Cc1ccc2c(N)c(C(=O)Nc3ccc(OC(F)(F)F)cc3)sc2n1 | inactive
COc1ccc(-c2nnc3ccc(N/N=C/c4ccc(C)cc4)nn23)cc1 | active
COc1cc(/C=C/C(=O)c2ccc(C)cc2)ccc1Oc1nc(Nc2ccc(F)cc2)nc(N(C)C)n1 | inactive
N#Cc1c(-c2cccc3ccccc23)cc(-c2cccc(OCC(=O)O)c2)[nH]c1=O | inactive
COc1ccc2[nH]cc(-c3nnc(N)nc3-c3cn(C)c4ncc(Br)cc34)c2c1 | inactive
Cc1ccc(C(=O)CSc2nc3ccc(F)cc3c(=O)n2-c2ccc(Cl)cc2)cc1 | active
O=c1[nH]c2ccccc2cc1CSc1nccc(-c2ccc3ccccc3c2)n1 | inactive
COc1cc(-c2nc3cc(Cl)c(Cl)cc3[nH]2)ccc1OCc1nnc(-c2cccs2)o1 | inactive
C/C(=N\Nc1ccc(S(N)(=O)=O)cc1)c1ccc(N=Nc2c(Nc3ccccc3)[nH][nH]c2=O)cc1 | inactive
Cn1cc(-c2cc(N)n3nc(-c4cn(C)c5ccccc45)cc3n2)c2cc(Cl)ccc21 | active
N#Cc1c(-c2ccc(Cl)cc2)nc2n[nH]c(-c3ccc(Cl)cc3)c2c1-c1cccs1 | inactive
O=C(/C=C/c1ccc(O)c(O)c1)NC1CCOC1O (stereo not drawn) | inactive

----------
Tested on: T-47D breast
Assay: NCI-60 one-dose screen, 48 h
Details: 10 µM unless noted
About 83,000 compounds went through this panel and 20% of them were active in at least one assay; those are over-represented in the sample as a whole. The source made the active and inactive calls. Rule for the calls: active = growth percent below 10; inactive = the rest.
Outcomes: class 1 = active, class 0 = inactive

Molecule | Class assignment
O=c1[nH]c2ccc(Cl)cc2cc1CSc1nccc(-c2ccc(Cl)cc2)n1 | class 0
CN(C)c1nc(NCCNS(=O)(=O)c2ccc(C3=Nc4c(N)nc(N)nc4NC(c4ccc(C(F)(F)F)cc4)C3)cc2)nc(Nc2ccc(F)cc2)n1 (centres undefined) | class 1
NS(=O)(=O)c1ccc(CCNC(=O)CSc2ccc(-c3ccc(Br)cc3)nn2)cc1 | class 0
CC(C)C(C(=O)O)n1c(O)c(/C=C2/C=c3cc4c(cc3=NC2=O)OCO4)sc1=S (centres undefined) | class 0

----------
Test system: SK-MEL-2 melanoma
Assay: NCI-60 one-dose screen, 48 h
Conditions: 10 µM unless noted
Procedure: Growth inhibition of the SK-MEL-2 human tumor cell line is measured as a screen for anti-cancer activity. Cells are grown in 96 well plates and exposed to the test compound for 48 hours. Compounds are tested at a single concentration, which is 10^-5 M for most compounds. The reported endpoint is percent growth (GI% or GIPRCNT), where numbers from 0 - 100% represent growth inhibition, and numbers from -100% - 0 represent cell death. For example, a value of 40 represents 60% growth inhibition. […]
Compounds without any hit were thinned out: in the full panel of roughly 83,000, 20% have a hit. The source made the active and inactive calls. How the source made its calls: active means growth percent below 10; inactive means the rest.
Outcomes: true (1) for active, false (0) for inactive

Compound | Class assignment
C#C[C@]1(O)CC[C@H]2[C@@H]3CC=C4c5sc(-c6ccc([N+](=O)[O-])cc6)nc5CC[C@]4(C)[C@H]3CC[C@@]21C | true (1)
O=C(COc1ccc(NC(=O)Nc2ccc(Cl)c(Cl)c2)cc1)N=Nc1c(O)[nH]c2ccccc12 | true (1)
CN(C)c1ccnc(CNCCSC2(c3ccc(C(F)(F)F)cc3)c3ccccc3C=Cc3ccccc32)c1 | true (1)
O=C(CSc1nc2ccccc2c(=O)[nH]1)NCCN1CCCCC1 | false (0)
O=C(c1ccc(Cl)cc1)c1ccc(OCCCN2CCN(c3ccncc3)CC2)cc1 | false (0)
O=C(COc1ccc2c(c1)CCCC(=O)N2)NCc1ccccc1 | false (0)
COc1cc(OC)cc(-c2cc3ccc(N(C)C)cc3c(=O)[nH]2)c1 | false (0)
COc1cc(C2CC(c3cc(OC)c(OC)c(OC)c3)=NN2c2ccccc2)ccc1OCc1ccc(C)cc1 (stereo unspecified) | false (0)
CC1CN(c2oc(-c3ccc([N+](=O)[O-])cc3)nc2C#N)CC(C)O1 (stereo unspecified) | false (0)
N#Cc1c(-c2cccc(Cl)c2Cl)cc(-c2ccc3ccccc3c2)[nH]c1=O | false (0)
CCOC(=O)c1ccc(Nc2nc(NN)nc(-c3ccc(F)cc3)c2C#N)cc1 | false (0)
COc1ccc(C(=O)/C=C/c2cccc3ccccc23)cc1S(N)(=O)=O | false (0)
Cn1cc(NC(=O)c2cc(NC(=O)c3ccc(/C=C/c4ccccc4)cc3)cn2C)cc1C(=O)NCCCN1CCOCC1 | false (0)
O=C(NNc1nc2cc(F)ccc2n2c(C(=O)N3CCN(C4CC4)CC3)ccc12)c1ncccn1 | false (0)
NS(=O)(=O)c1ccc(-n2cc(-c3cccc(NC(=O)c4cc(C(F)(F)F)cc(C(F)(F)F)c4)c3)nn2)cc1 | false (0)
COc1ccc(-c2nc3cc(C)ccc3n2CC(=O)N=Nc2c(O)[nH]c3ccc(Cl)cc23)cc1 | false (0)
C=C1CC[C@@H]2[C@]3(C)COC(c4cn(-c5ccccc5)nc4-c4cccc([N+](=O)[O-])c4)O[C@@H]3CC[C@@]2(C)[C@@H]1C/C=C1/C(=O)OC[C@H]1O (stereo partly specified) | true (1)
COc1cc2oc(-c3cccc(C(=O)Nc4cccc([N+](=O)[O-])c4)c3)cc(=O)c2c(OC)c1OC | true (1)
COc1ccc(C(=O)/C=C/c2cccc(Cl)c2)cc1S(N)(=O)=O | false (0)
O=C(NNc1nc2cc(F)ccc2n2c(CN3CCCCC3)ccc12)c1cnccn1 | true (1)
Clc1cccc(Cl)c1/C=C/c1cc(/C=C/c2ccc(Br)cc2)c2ccccc2n1 | false (0)
CC(C)c1sc(NC(=O)c2cc(NC(=O)c3cc(NC(=O)c4nccn4C)cn3C)cn2C)nc1C(=O)NCCCN(C)C | false (0)
Cc1ccc(S(=O)(=O)c2nc(S(=O)(=O)c3ccc(C)cc3)c(N3CCC(O)CC3)s2)cc1 | false (0)
O=C(c1ccccc1)C(c1c[nH]c2ccccc12)c1c[nH]c2ccccc12 | false (0)
CC1=C(C(=O)OC(C)C)C(c2cccc(O)c2)NC(=S)N1 (stereo unspecified) | false (0)
CCC(C)(C)c1ccc(OCCCCN2CCN(c3ccncc3)CC2)cc1 | false (0)
O=C(/C=C/c1ccc(O)c(O)c1)NC1CCOC1O (stereo unspecified) | false (0)
COc1ccc(NC(=O)[C@@H](N)Cc2ccccc2)cc1C(=O)Nc1cccc(C2CC(=O)c3c(cc(OC)c(OC)c3OC)O2)c1 (stereo partly specified) | false (0)
N=C1N=C(SCc2nc3ccccc3[nH]2)NC(=O)/C1=C/c1ccc(Cl)cc1 | false (0)
O=c1oc2ccccc2cc1-c1csc(N=Nc2c(O)[nH]c3ccc(Cl)cc23)n1 | false (0)
CC1(C)CC[C@]2(C(=O)O)CC[C@]3(C)C(=CCC4[C@@]5(C)C[C@@H](O)[C@@H]6OC(c7ccccc7Br)OC[C@@]6(C)C5CC[C@]43C)C2C1 (stereo partly specified) | true (1)
C=CC[N+](C)(C)CCn1c2ccccc2c2nc3cc(C)c(C)cc3nc21 | false (0)
COc1cc2c(c(OC)c1OC)C(=O)CC(c1cccc(NC(=O)c3cc(N)ccc3Cl)c1)O2 (stereo unspecified) | false (0)
COc1ccc(C(=O)/C=C/c2ccc(Cl)c(Cl)c2)cc1S(N)(=O)=O | false (0)
CC1(c2cc3cc(Cl)ccc3oc2=O)NC(=O)c2c(/C=C/C(=O)OC3CC4CCC3(C)C4(C)C)cccc2N1 (stereo unspecified) | false (0)
NS(=O)(=O)c1ccc(CCNC(=O)CSc2ccc(-c3ccc(Br)cc3)nn2)cc1 | false (0)
